In this section, each of the compounds is paired with its reported Tyrosinase Inhibition (%).
# assay system: UniProt:C7FF04
# assay: Mushroom tyrosinase inhibitory assay (L-tyrosine substrate)
# Type: biochemical
# conditions used: 50 μM, L-tyrosine as substrate, mean ± SEM; NI means no inhibition
Report the figure in % without appending any unit label.

Below, each entry is followed by its recorded Tyrosinase Inhibition (%) result.
compound	Tyrosinase Inhibition (%)
COc1ccc2c(c1)c(=O)oc1cc(O)cc(O)c12	94.86
COc1ccc(-c2c(O)cc(O)cc2O)c(CO)c1	26.30
OCc1ccccc1-c1c(O)cc(O)cc1O	19.78

stdin: Field request: Tyrosinase Inhibition (%) | item: O=c1oc2cc(O)cc(O)c2c2ccc(O)cc12
stdout: 12.68

stdin: Field request: Tyrosinase Inhibition (%) | item: O=c1oc2cc(O)cc(O)c2c2ccccc12 [Compound 1c, 1,3-Dihydroxy-6H-benzo[c]chromen-6-one]
stdout: 68.93

stdin: Field request: Tyrosinase Inhibition (%) | item: OCc1ccccc1-c1ccc(O)cc1O
stdout: 75.92

====

# assay system: mushroom tyrosinase (Agaricus bisporus)
# Sequence (C7FF04 1-392 limits assumed): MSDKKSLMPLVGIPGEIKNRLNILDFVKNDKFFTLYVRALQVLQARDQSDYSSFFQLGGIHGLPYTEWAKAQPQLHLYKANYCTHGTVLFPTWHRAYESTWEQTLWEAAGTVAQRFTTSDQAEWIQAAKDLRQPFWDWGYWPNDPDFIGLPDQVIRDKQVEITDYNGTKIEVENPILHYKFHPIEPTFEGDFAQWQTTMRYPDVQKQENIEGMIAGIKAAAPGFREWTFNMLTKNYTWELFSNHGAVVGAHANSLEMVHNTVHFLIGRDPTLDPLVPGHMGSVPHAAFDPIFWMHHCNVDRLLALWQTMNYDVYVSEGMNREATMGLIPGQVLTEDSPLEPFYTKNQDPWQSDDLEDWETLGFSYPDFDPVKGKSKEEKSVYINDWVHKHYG
# assay: Mushroom tyrosinase inhibitory assay (L-tyrosine substrate)
# Type: biochemical
# conditions used: 50 μM, L-tyrosine as substrate, mean ± SEM; NI means no inhibition
outcome measure: inhibition at 50 µM

compound	assay system	inhibition at 50 µM
COc1cc(O)c(-c2ccccc2CO)c(OC)c1	mushroom tyrosinase (Agaricus bisporus)	< 0%

stdin: Field request: inhibition at 50 µM | item: OCc1ccccc1-c1ccc(O)cc1O
stdout: 76%

stdin: Field request: inhibition at 50 µM | item: COc1ccc2c(c1)oc(=O)c1ccccc12 [Compound 1b, 3-Methoxy-6H-benzo[c]chromen-6-one]
stdout: < 0%

stdin: Field request: inhibition at 50 µM | item: COc1ccc2c(c1)c(=O)oc1cc(O)cc(O)c12
stdout: 95%

stdin: Field request: inhibition at 50 µM | item: O=c1oc2cc(O)ccc2c2ccc(O)cc12 [Compound 1e, 3,8-Dihydroxy-6H-benzo[c]chromen-6-one]
stdout: < 0%

stdin: Field request: inhibition at 50 µM | item: COc1cc(OC)c2c(c1)oc(=O)c1cc(OC)ccc12
stdout: < 0%

stdin: Field request: inhibition at 50 µM | item: COc1ccc(-c2ccc(OC)cc2CO)c(O)c1
stdout: < 0%

Values from paper PMC8199067
